Procedure text: Pharmacokinetics in mice (plasma, HPLC-MS/MS)
Type: in vivo
Particulars: mouse, plasma, iv, 2 mg/kg, NMP vehicle, mice
Measured metric: Tmax (min)
Please state the figure in min; there is no need to write the unit.

Q) Endpoint output: Tmax of CCOc1ccc2cc(C3CC(c4ccc(I)cc4)=NN3C(=O)CCCC(=O)NCCCN3CCOCC3)c(Cl)nc2c1 (stereo not shown) . Value?
A) 30

###

Procedure text: Vehicle/excipient solubility screen
Assay type: physicochemical
Particulars: 30% SBECD in water, aqueous with cosolvent or surfactant or cyclodextrin; read-out: Solubility
Measured metric: solubility

Q) Endpoint output: solubility of CCOc1ccc2cc(C3CC(c4ccc(I)cc4)=NN3C(=O)CCCC(=O)NCCCN3CCOCC3)c(Cl)nc2c1 (stereo not shown) . Value?
A) < 1000 µg/mL

###

Procedure text: Pharmacokinetics in mice (plasma, HPLC-MS/MS)
Format: in vivo
Particulars: mouse, plasma, ip, 200 mg/kg, NMP vehicle, mice
Measured metric: Cmax (ng/mL)
Please state the figure in ng/mL; there is no need to write the unit.

Q) Endpoint output: Cmax of CCOc1ccc2cc(C3CC(c4ccc(I)cc4)=NN3C(=O)CCCC(=O)NCCCN3CCOCC3)c(Cl)nc2c1 (stereo not shown) . Value?
A) 2910

###

Procedure text: Pharmacokinetics in mice (plasma, HPLC-MS/MS)
Assay type: in vivo
Particulars: mouse, plasma, ip, 200 mg/kg, NMP vehicle, mice
Method: A method to quantify 329 from plasma has been developed using an internal standard, liquid–liquid extraction, and HPLC-MS/MS. Mouse plasma samples were prepared from treated mice at the indicated times frozen at -80°C until analysis. […] The solvent was evaporated to dryness, brought up in mobile phase analyzed by HPLC-MS/MS (ABSciex 4000). […] The lower limit of quantification is 0.1 ng/ml using 20 µl of plasma. […]
Measured metric: AUC(0-t) (ng·h/mL)
Please state the figure in ng·h/mL; there is no need to write the unit.

Q) Endpoint output: AUC(0-t) of CCOc1ccc2cc(C3CC(c4ccc(I)cc4)=NN3C(=O)CCCC(=O)NCCCN3CCOCC3)c(Cl)nc2c1 (stereo not shown) . Value?
A) 52000

###

Procedure text: Pharmacokinetics in mice (plasma, HPLC-MS/MS)
Assay type: in vivo
Particulars: mouse, plasma, ip, 20 mg/kg, IP, NMP vehicle, 20 mg/kg, mice; read-out: t1/2 (converted)
Measured metric: half-life (h)
Please state the figure in h; there is no need to write the unit.

Q) Endpoint output: half-life of CCOc1ccc2cc(C3CC(c4ccc(I)cc4)=NN3C(=O)CCCC(=O)NCCCN3CCOCC3)c(Cl)nc2c1 (stereo not shown) . Value?
A) 6.3

###

Procedure text: Intrinsic clearance and half-life in rat microsomes
Type: in vitro ADME
Particulars: Rat microsomes
Measured metric: half-life (min)
Please state the figure in min; there is no need to write the unit.

Q) Endpoint output: half-life of CCOc1ccc2cc(C3CC(c4ccc(I)cc4)=NN3C(=O)CCCC(=O)NCCCN3CCOCC3)c(Cl)nc2c1 (stereo not shown) . Value?
A) 21.7

###

Procedure text: Pharmacokinetics in mice (plasma, HPLC-MS/MS)
Assay type: in vivo
Particulars: mouse, plasma, ip, 200 mg/kg, DMSO vehicle, mice
Measured metric: Tmax
Enter the number, and then the unit.

Q) Endpoint output: Tmax of CCOc1ccc2cc(C3CC(c4ccc(I)cc4)=NN3C(=O)CCCC(=O)NCCCN3CCOCC3)c(Cl)nc2c1 (stereo not shown) . Value?
A) 15 min
